Species on record: Rattus norvegicus
Experiment: Open TG-GATES - Regimen: Daily Repeat
Type: toxicity, organism-based, Sprague-Dawley
Parameters: regimen Daily Repeat, gender Male, age 6 weeks
Conditions: in vivo, po, 0 mg/kg, […], tissue Plasma, route gavage, dose level Control, time 7 day
metric: Ca (mg/dL)

1. OCCN1CCN(CCCN2c3ccccc3Sc3ccc(C(F)(F)F)cc32)CC1	10.5
2. CCOC(=O)C(C)(C)Oc1ccc(Cl)cc1 [CLOFIBRATE]	10.5
3. Cn1cc[nH]c1=S	10.6
4. Cc1cccc(C)c1OCC(C)N (centres undefined)	10.7
5. O=C1CN(/N=C/c2ccc([N+](=O)[O-])o2)C(=O)N1	10.8
6. O=[N+]([O-])c1ccc(O)c([N+](=O)[O-])c1	11.4
7. C=C(C)[C@H]1Cc2c(ccc3c2O[C@@H]2COc4cc(OC)c(OC)cc4[C@@H]2C3=O)O1	11.5
8. C[C@H]1O[C@H](O[C@H]2[C@H](O)[C@@H](O)[C@@H](O[C@H]3[C@H](O)[C@@H](O)C(O)O[C@@H]3CO)O[C@@H]2CO)[C@H](O)[C@@H](O)[C@@H]1N[C@H]1C=C(CO)[C@@H](O)[C@H](O)[C@H]1O (some centres undefined)	11
9. C[C@H]1C(=O)O[C@@H]2CCN3CC=C(COC(=O)[C@](C)(O)[C@]1(C)O)[C@H]23	10.7
